Values from patent US20200055939A1

MEASUREMENT_TARGET: MICB*005 on HCC1534 cells (human); note: test concentration or dose not given here
PROTOCOL_NOTES: cell-based or functional assay
MEASURED_QUANTITY: % Inhibition (%)

| BINDER | MEASURED_QUANTITY | OBSERVED_VALUE |
| --- | --- | --- |
| 15F11v1 (antibody, IgG1, V domains shown, humanized variant of 15F11) VH: EVQLVQSGAEVKKPGASVKVSCKASGYAFTSNNIYWVRQAPGQGLEWIGYIDPYIGRIIYNQQFKDRVTITADTSTSTAYLELSSLRSEDTAVYYCSRSGERSNFDYWGQGTLVTVSS VL: EIVLTQSPATLSLSPGERATLSCSASSSISSNYLHWYQQKPGQAPRLLIYRTSNLASGIPARFSGSGSGTDFTLTISSLEPEDFAVYYCQQGGSLPLTFGQGTKVEIK | % Inhibition | 43 |
| 1D5v3 (antibody, IgG1, V domains shown, humanized variant of 1D5) VH: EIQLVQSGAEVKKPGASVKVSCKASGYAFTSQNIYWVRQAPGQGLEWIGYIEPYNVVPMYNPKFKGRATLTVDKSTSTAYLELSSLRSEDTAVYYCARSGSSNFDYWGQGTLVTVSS VL: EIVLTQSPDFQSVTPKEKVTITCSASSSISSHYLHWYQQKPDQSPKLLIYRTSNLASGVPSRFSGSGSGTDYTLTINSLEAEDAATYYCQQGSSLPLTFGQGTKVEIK | % Inhibition | 38 |
